Test system: MS2 coat protein
Assay: apparent KD of MS2 coat protein; higher = weaker reporter binding
Settings: Eterna round: R107; input ligand: arginine 13.2 mM
Kindly state apparent KD of MS2 coat protein for each of the entries shown.
Quick reminder: number only, in nM, skip the unit.

Query: For the sequence AUACAUGAGGAUCACCCAUGUGAUGGCCGGCGAGGACCGGUACGGCCGCCACUCGUGAUCCGUCCUGAAAGCAAAGCUCCCAGCA [Lalazare] , report apparent KD of MS2 coat protein.
Result: 25.1

Query: For the sequence AAAUAAAUACAUGAGGAUCACCCAUGUGAAGGAGCGGCCGUUAGGCCAGGUAGGUCGCGCAUGAAUAACUCCGUGCAUAAGCACA [MAT - Exclusion Arginine A - Mod of Eli - D18] , report apparent KD of MS2 coat protein.
Result: 10.6

Query: For the sequence ACAUGAGGAUCACCCAUGUAGCGUAGGGAAGGAGCGGAAUAAAGUCCAGGUAGGUCGCCCAUAUGAUGAUCUCACUUAUUAUCGA [#12 Same State - Arginine A] , report apparent KD of MS2 coat protein.
Result: 27.7

Query: For the sequence CCAUAAGUACCGGUCCUCAGAUCCUCAUGACGAGGACCGGUACGGCCGCCACUCGAAACAUGAGGAUCACCCAUGUAAUAAUAUU [Brourdmod14] , report apparent KD of MS2 coat protein.
Result: 19.3

Query: For the sequence GGGAGGUAGGCGGCCGCCACUGAUUUUCAUAUAUAUAUAACAUGAGGAUCACCCAUGUAGAUAUACAGGACCGGGCCUAUUUUUU [aaaF] , report apparent KD of MS2 coat protein.
Result: 30.2

---

System: MS2 coat protein
Assay: apparent KD of MS2 coat protein; designed switch direction (-1 OFF switch, 1 ON switch): 1; higher = weaker reporter binding
Conditions: input ligand: none
Kindly state apparent KD of MS2 coat protein for each of the entries shown.
Quick reminder: number only, in µM, skip the unit.

Query: For MS2 coat protein, give apparent KD of MS2 coat protein of the listed sequence: GUACAGAUCAGAGGAUAUCACGUCGAUUAGACGUGAGAAGGCUGAUCACACAUGAAUAUUAGUACAUGAGGAUCACCCAUGUAC [SSNG1/15-A2] (Eterna round: R96, puzzle: Same State NG 1)
Result: 0.0167

Query: For MS2 coat protein, give apparent KD of MS2 coat protein of the listed sequence: UGGUACAUGGGAGGAUAUCUCAUGGUGACAUGAGGAUCACCCAUGUAGUUGGAGCCGAAAGGCUGAGAGAAGGCCCAUGUACCU [JL SSNG1 3.75] (Eterna round: R96, puzzle: Same State NG 2)
Result: 0.0785

Query: For MS2 coat protein, give apparent KD of MS2 coat protein of the listed sequence: GGAGCCAAGGCAGGAUAUUCAUUAUAAAUAACAUGAGGAUCACCCAUGUUGGCCAGAAGGCCAUGGGAGAAGGGCCAUGGCUCG [Xeonanis - 13 mod24] (Eterna round: R96, puzzle: Same State NG 2)
Result: 0.105

Query: For MS2 coat protein, give apparent KD of MS2 coat protein of the listed sequence: GCUCGUAUGAUGACCGACAUGAGGAUCACCCAUGUGUGUCGGUAGGAUAUCUAUAUUAAGGAUAUAGAGAAGGGCCGAACGAGC [SameState NG3 #17] (Eterna round: R96, puzzle: Same State NG 3)
Result: 0.0929

Query: For MS2 coat protein, give apparent KD of MS2 coat protein of the listed sequence: GCGAGCGUACUUGCAGACAUGAGGAUCACCCAUGUAACUGGACAGGAUAUGGUACCGUUUCGGUACCAGAAGGGUUUACAUGUU [JL SSNG3 3.51] (Eterna round: R96, puzzle: Same State NG 3)
Result: 0.0477

Query: For MS2 coat protein, give apparent KD of MS2 coat protein of the listed sequence: GUAGCAUACCGAGGAUAUUCAAACCGGAAACGGACAUGAGGAUCACCCAUGUGGCGAAAGCCUUGGGAGAAGGCGGAAUGCUAC [Xeonanis - 20 Mod76] (Eterna round: R96, puzzle: Same State NG 2)
Result: 0.0191

Query: For MS2 coat protein, give apparent KD of MS2 coat protein of the listed sequence: UACAUGAGGAUCACCCAUGUAGUCCAUGCACCGGACCGAAGCGAGGAUAUGGUCUGCAUCGGUGGCCAGAAGGCGCUUCCAGAA [Eternabot solution 26] (Eterna round: R96, puzzle: Same State NG 3)
Result: 0.0467

Query: For MS2 coat protein, give apparent KD of MS2 coat protein of the listed sequence: GUUACAUGAGGAUCACCCAUGUAUGUGUGGGAGUAAGUGUCUUAGGAUAUCUGUUAUCUAAUUUAAGAGAAGGAAGAUUGUUGU [JMF's solution 35] (Eterna round: R96, puzzle: Same State NG 3)
Result: 0.0872
